Where do these numbers come from? They come from patent US11485742B2.

Molecular target: human cloned CHRM4 receptor (Homo sapiens)
Construct: expressed in transfected cells; host or cells: CHO-K1 (M4_CHO)
Assay: CHRM4 Ca++ Flux Assay (M4_CHO cells, agonist mode)
Format: cell-based
Details: Percent Activity (PA)
Response field label takes t when M4 FDSS PA % is strictly below 70% and f in all other cases.

Task item: Problem: For the compound CC(C)(O)[C@H]1C[C@H](Oc2ccc(F)cc2C2CCN([C@@H]3COC4(C3)CN(c3nnco3)C4)CC2)C1 (single isomer, unassigned) [Example 2V] , is M4 FDSS PA % under 70%?
Reply: f

Task item: Record O[C@H]1CC[C@@H](c2ccc(F)cc2C2CCN([C@@H]3COC4(C3)CN(c3nnco3)C4)CC2)CC1 (single isomer, unassigned) [Example 3I] : is its M4 FDSS PA % strictly below 70%?
Reply: f

Task item: Could you please tell me whether M4 FDSS PA % recorded for O[C@H]1CC[C@@H](c2ccc(F)cc2C2CCN([C@@H]3COC4(C3)CN(c3nnco3)C4)CC2)CC1 (single isomer, unassigned) [Example 3H] is less than 70%?
Reply: f

Task item: Dear reviewer, please state whether CC(C)(O)[C@H]1C[C@@H](Oc2ccc(F)cc2C2CCN([C@@H]3COC4(C3)CN(c3ncco3)C4)CC2)C1 (single isomer, unassigned) [Example 4T] has M4 FDSS PA % strictly beneath 70%.
Reply: t

Task item: # strict comparison: is reported M4 FDSS PA % < 70%? input = Fc1ccc(O[C@H]2CCCOC2)c(C2CCN([C@@H]3COC4(C3)CN(c3nnco3)C4)CC2)c1 (single isomer, unassigned) [Example 2Q]
Reply: f

###

Target: human cloned CHRM4 receptor (Homo sapiens, UniProt P08173)
Sequence (P08173 whole entry): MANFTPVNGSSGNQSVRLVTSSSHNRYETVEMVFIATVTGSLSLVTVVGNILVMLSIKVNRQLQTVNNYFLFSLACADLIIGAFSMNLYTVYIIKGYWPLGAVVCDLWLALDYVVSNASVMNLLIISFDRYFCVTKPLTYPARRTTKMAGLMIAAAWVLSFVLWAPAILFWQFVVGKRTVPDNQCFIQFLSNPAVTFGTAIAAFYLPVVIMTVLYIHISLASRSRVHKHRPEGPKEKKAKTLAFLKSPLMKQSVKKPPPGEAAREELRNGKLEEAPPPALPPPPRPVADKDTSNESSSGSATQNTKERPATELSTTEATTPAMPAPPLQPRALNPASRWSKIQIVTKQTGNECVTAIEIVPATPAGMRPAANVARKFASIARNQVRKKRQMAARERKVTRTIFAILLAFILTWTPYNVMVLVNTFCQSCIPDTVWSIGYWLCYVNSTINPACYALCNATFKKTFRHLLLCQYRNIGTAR
Assay: CHRM4 Ca++ Flux Assay (M4_CHO cells, agonist mode)
Settings: geometric mean if tested more than once, read-out: M4 FDSS EC50
Where a name gives a salt, the structure may show the parent alone.
Kindly state EC50 for each of the entries shown.
Write the number in nM without appending the unit.

Task item: Return EC50 for the following compound: `COc1ccccc1C1CCN([C@@H]2COC3(C2)CN(c2ncns2)C3)CC1`
Reply: 87

Task item: Entry CC(C)(O)[C@H]1C[C@H](Oc2ccc(F)cc2C2CCN([C@@H]3COC4(C3)CN(c3nnco3)C4)CC2)C1 (single isomer, unassigned) [Example 2W] needs its EC50 filled in; supply it.
Reply: 87

Task item: Given `Fc1ccc(O[C@@H]2CCOC2)c(C2CCN([C@@H]3COC4(C3)CN(c3ncco3)C4)CC2)c1` , respond with its EC50.
Reply: 7

Task item: Dear colleague, please send me the reported EC50 for `CC1(COc2ccc(F)cc2C2CCN([C@@H]3COC4(C3)CN(c3nnco3)C4)CC2)COC1` when you can.
Reply: 18

Task item: Input `Fc1ccc(OCc2ncccn2)c(C2CCN([C@@H]3COC4(C3)CN(c3nnco3)C4)CC2)c1` , output reported EC50.
Reply: 12

Task item: Query EC50 for `Fc1ccc(OC2COC2)c(C2CCN([C@@H]3COC4(C3)CN(c3nnco3)C4)CC2)c1`
Reply: 8

Task item: Find the measured EC50 of c1ccc(C2CCN([C@@H]3COC4(C3)CN(c3nncs3)C4)CC2)c(OC2COC2)c1 [Example 5Q, formate salt] and report it.
Reply: 92

Task item: Read off the recorded EC50 for C[C@H](Oc1ccc(F)cc1C1CCN([C@@H]2COC3(C2)CN(c2nnco2)C3)CC1)C1CCOCC1 (single isomer, unassigned) [Example 2Y]
Reply: 554

Task item: Annotate the compound `Fc1ccc(OC2CC3(COC3)C2)c(C2CCN([C@@H]3COC4(C3)CN(c3ncon3)C4)CC2)c1` with its measured EC50.
Reply: 44

Task item: Answer with the recorded EC50 for the compound listed here: `Fc1cc(F)c(OC2CCOCC2)c(C2CCN([C@@H]3COC4(C3)CN(c3nnco3)C4)CC2)c1`
Reply: 946

Task item: Hello, please tell me recorded EC50 for this one: `COc1cc(F)ccc1C1CCN([C@@H]2COC3(C2)CN(c2nnco2)C3)CC1`
Reply: 79

Task item: Kindly indicate its recorded EC50. Item: `Fc1ccc(OC[C@H]2COCCO2)c(C2CCN([C@@H]3COC4(C3)CN(c3ncco3)C4)CC2)c1`
Reply: 4

Task item: Return value of EC50 for input `Fc1ccc(O[C@@H]2CCOC2)c(C2CCN([C@@H]3COC4(C3)CN(c3nnco3)C4)CC2)c1` , no commentary.
Reply: 21

Task item: Look up and report measured EC50 for this entry: `COCCOc1ccc(F)cc1C1CCN([C@@H]2COC3(C2)CN(c2ncns2)C3)CC1`
Reply: 128

Task item: # return recorded EC50 for entry `CC(C)(O)CCOc1cc(F)ccc1C1CCN([C@@H]2COC3(C2)CN(c2nnco2)C3)CC1`
Reply: 157
